# Test system: HL-60(TB) leukemia
# Assay: NCI-60 one-dose screen, 48 h
# Applied conditions: 10 µM unless noted
The panel holds about 83,000 compounds, 20% with a hit somewhere; the sample as a whole holds those more often. The source made the active and inactive calls. How the source made its calls: active means growth percent below 10; inactive means the rest.
Use one of these outcomes when replying: active, inactive

Past entries and their recorded results:
C=C(C)[C@@H]1C/C=C(\COC(=O)[C@H](OC(C)=O)C(NC(=O)c2ccccc2)c2ccccc2)CC[C@H]2O[C@]2(C)CC/C=C(\C)CC1 (stereo partly specified) | inactive
ClCc1cccc2c(CCl)cccc12 | inactive
O=C(/C=C/c1ccc(Cl)cc1)c1ccc(Cl)cc1 | inactive
C(=C\c1ccncc1)/c1ccncc1 | inactive
CCCCCC/C=C\CCCCCCCCOc1ccc(CCOP(=O)(O)OCC[N+](C)(C)C)cc1 | active

Hi team, can someone confirm the assay call for Cc1ccc(C2Oc3ccccc3C3CC(c4cccs4)=NN32)cc1 (stereo unspecified) ?
inactive

Hi team, can someone confirm the assay call for c1ccc(/C(=N\N=C(/c2ccccc2)c2cccs2)c2cccs2)cc1 ?
inactive

Hi team, can someone confirm the assay call for COc1ccc(-c2nc3sc(-c4cc(OC)c(OC)c(OC)c4)nn3c2/C=C2/C(=O)Nc3ccc(F)cc32)cc1 ?
inactive

Hi team, can someone confirm the assay call for O=C1NC(=O)C(c2ccccc2)(c2ccccc2)N1Cc1cn(-c2c3ccccc3nc3ccccc23)nn1 ?
inactive

Hi team, can someone confirm the assay call for CNC(=O)c1cc(Oc2cccc3nc(NC(=O)Nc4cc(C(F)(F)F)cc(C(F)(F)F)c4)ccc23)ccn1 ?
inactive

Hi team, can someone confirm the assay call for CSc1nc2ncnc(SC)c2[nH]1 ?
inactive

Hi team, can someone confirm the assay call for O=c1[nH]cc(/C=N\Nc2ccccc2)c(=O)[nH]1 ?
active

Hi team, can someone confirm the assay call for COc1ccc2c(c1)c(CC(=O)[Se]C)c(C)n2C(=O)c1ccc(Cl)cc1 ?
active

Hi team, can someone confirm the assay call for Brc1ccc(Oc2ccc(Nc3ncnc4onc(-c5ccccc5)c34)cc2)cc1 ?
inactive

Hi team, can someone confirm the assay call for Nc1cc2c(cc1Br)[nH]c(=O)c1ccccc12 ?
inactive

Hi team, can someone confirm the assay call for O=C1N/C(=N/N=C(c2ccccc2)c2ccccc2)S/C1=C\c1ccc(Br)cc1 ?
inactive

Hi team, can someone confirm the assay call for Brc1cccc(-c2nc(-c3ccc4c(c3)OCCO4)co2)c1 ?
inactive

Hi team, can someone confirm the assay call for COc1ccc(-c2nc3c(c(=O)n2C(C)=O)C(c2ccc(Cl)cc2)c2sc4c(Cl)cccc4c2O3)cc1 (stereo unspecified) ?
active

Hi team, can someone confirm the assay call for C=CCN1C(=O)[C@]2(SC1=S)[C@H](c1cccc(Cl)c1)CN(C)[C@]21C(=O)NC2C=CC(Cl)=C[C@H]21 (stereo partly specified) ?
active

Hi team, can someone confirm the assay call for COc1cc2c(cc1OCCCOc1cc3c(cc1OC)C(=O)N1CC(F)(F)C[C@H]1C=N3)N=C[C@@H]1CC(F)(F)CN1C2=O ?
active

Hi team, can someone confirm the assay call for CCOC(=N)c1ccc(C(=N)OCC)cc1 ?
inactive

Hi team, can someone confirm the assay call for COc1cc(Cl)cc(-c2nn(-c3cccc(NC(=O)Nc4ccc(Cl)c(C(F)(F)F)c4)c3)cc2-c2ccncc2)c1 ?
active

Hi team, can someone confirm the assay call for COc1ccc2[nH]c(=O)c(CN3CCN(c4nccc(-c5ccc(Cl)cc5)n4)CC3)cc2c1 ?
inactive

Hi team, can someone confirm the assay call for Cc1ccc(F)cc1NC(=O)c1cc(Cl)ccc1Nc1ccccc1 ?
inactive

###

# Test system: HL-60(TB) leukemia
# Assay: NCI-60 one-dose screen, 48 h (100 = growth as untreated, 0 = no growth, -100 = all killed)
# Applied conditions: 10 µM unless noted
# Experimental: Growth inhibition of the HL-60(TB) human tumor cell line is measured as a screen for anti-cancer activity. Cells are grown in 96 well plates and exposed to the test compound for 48 hours. Compounds are tested at a single concentration, which is 10^-5 M for most compounds. The reported endpoint is percent growth (GI% or GIPRCNT), where numbers from 0 - 100% represent growth inhibition, and numbers from -100% - 0 represent cell death. For example, a value of 40 represents 60% growth inhibition. […]
This is part of a sample that, as a whole, favours compounds with a hit. Of some 83,000 tested, about 20% had one in any assay.
Measured quantity: growth (%)
Lab book: enter the figure in %, no units written.

Fill in reported growth for this entry: COc1cc(C(=O)/C=C/c2sc(Cl)nc2Cl)cc(OC)c1OC
23.4

###

Listed below: growth values for each entry.
# System: HL-60(TB) leukemia
# Assay: NCI-60 one-dose screen, 48 h (100 = growth as untreated, 0 = no growth, -100 = all killed)
# Applied conditions: 10 µM unless noted
Compounds without any hit were thinned out: in the full panel of roughly 83,000, 20% have a hit.
Lab book: enter the figure in %, no units written.

C/C(=N\Nc1cc(C)c2cc(C)ccc2n1)c1ccccn1 | -54.9

Fill in reported growth for this entry: Nc1cc2c(cc1Br)-c1c(C(=O)O)cccc1C2O (centres undefined)
77.8

Fill in reported growth for this entry: CN1CCN(c2ccc3nc4c(nc3c2C(F)(F)F)C(=O)c2ncccc2C4=O)CC1
-50.4

Fill in reported growth for this entry: COC(=O)c1ccc2c(C(=Nc3ccc(N(C)C(=O)CN4CCN(C)CC4)cc3)c3ccccc3)c(O)[nH]c2c1
70.8

Fill in reported growth for this entry: COC(=O)C[Se]C(=O)c1ccccc1OC(C)=O
-4.01

Fill in reported growth for this entry: O=C(NCc1cccnc1)c1cc(-c2csc3c(=O)cc(N4CCOCC4)oc23)cc2c1OCCO2
-35.1

Fill in reported growth for this entry: Nc1nc(N)c2nc(CNc3ccc(C(=O)CC(CCC(=O)O)C(=O)O)cc3)cnc2n1 (centres undefined)
49

Fill in reported growth for this entry: Oc1[nH]c2ccc(Cl)cc2c1/C=c1/ccc2c(c1)N=C(c1ccc(C(F)(F)F)cc1)N=2
75.1

Fill in reported growth for this entry: Cc1nc2sc(C(=O)Nc3ccc(Cl)cc3)c(N)c2cc1C(O)c1ccccc1 (centres undefined)
2.56

Fill in reported growth for this entry: CC1(C)C(N(O)C(=O)Nc2ccc(Cl)cc2)N(c2ccc(Cl)cc2)C(=O)N1CC(=O)N/N=C/C=C/c1ccc([N+](=O)[O-])o1 (centres undefined)
-36

Fill in reported growth for this entry: Cc1cc(SC#N)ncn1
102

Fill in reported growth for this entry: c1cncc(-c2nc3ccccc3[nH]2)c1
94.8

Fill in reported growth for this entry: NC(=S)N/N=C\c1nccc2c(C(F)(F)F)cccc12
-24.8

Fill in reported growth for this entry: C[C@@H](CO)[C@@H]1CC[C@]2(C(=O)N3CCN(C)CC3)CC[C@]3(C)[C@H](CC[C@@H]4[C@@]5(C)CC[C@H](O)C(C)(C)[C@@H]5CC[C@]43C)[C@@H]12
-46.9

Fill in reported growth for this entry: Cc1cc(N/N=C/c2nc(-c3ccc(Cl)cc3)oc2C)c2cc(Br)ccc2n1
59

Fill in reported growth for this entry: CCN(CC)c1ccc(/C=C/C2=[N+](C)c3ccccc3C2(C)C)c(C)c1
-34.7

###

# Tested on: SK-MEL-28 melanoma
# Assay: NCI-60 one-dose screen, 48 h (100 = growth as untreated, 0 = no growth, -100 = all killed)
# Applied conditions: 10 µM unless noted
The panel holds about 83,000 compounds, 20% with a hit somewhere; the sample as a whole holds those more often.
Listed below: growth values for each entry.
Lab book: enter the figure in %, no units written.

CO[C@@H]([CH2][Hg][S]C#N)[C@@H]([CH2][Hg][S]C#N)OC | 104
c1ccc([As]=[As]c2ccccc2)cc1 (configuration not stated) | -25.5
CNc1ccc(C(=O)CC(O)CCC(C)C2OC(=O)CC(O)CC(=O)CC(O)CC(O)CC(O)CC(O)CC3(O)CC(O)C(C(=O)OC)C(CC(O[C@@H]4O[C@H](C)[C@@H](O)[C@H](N)[C@@H]4O)/C=C/C=C/C=C/C=C/C=C/C=C/C=C/C2C)O3)cc1 (some centres not stated) | -89.1
CC(=O)O[C@H]1CCC2(C)C(=CCC3C2CCC2(C)/C(=N/OC(=O)c4ccc(N(CCCl)CCCl)cc4)CCC32)C1 (some centres not stated) | 81.8
CC(=O)C1CCC2C3CC=C4CC(OC(=O)Cc5ccc(N(CCCl)CCCl)cc5)CCC4(C)C3CCC12C (configuration not stated) | 107

Fill in reported growth for this entry: CO[C@@H](c1ccccc1Cl)[C@H](C)OC(N)=O
102

###

# Tested on: CAKI-1 renal
# Assay: NCI-60 one-dose screen, 48 h (100 = growth as untreated, 0 = no growth, -100 = all killed)
# Applied conditions: 10 µM unless noted
The panel holds about 83,000 compounds, 20% with a hit somewhere; the sample as a whole holds those more often.
Measured quantity: growth (%)
Lab book: enter the figure in %, no units written.

Answered examples (2):
COc1ccc(OC)c(/C=C(/C)[N+](=O)[O-])c1 | 6.25
CCCCN(CCCC)CC(O)c1ccccc1 (stereo not given) | 107

Consider the record given below.
Fill in reported growth for this entry: CNC(=O)Oc1ccccc1
113
